# Test system: MDA-MB-231
# ASSAY_OVERVIEW: cells
# EXPERIMENTAL_CONTEXT: Homo sapiens, MDA-MB-231, 72 h, read-out: Mean IC50 ± SD, MDA-MB-231

COMPOUND: COc1cccc2c1C(=O)c1c(O)c3c(c(O)c1C2=O)C[C@@](O)(C(=O)CO)C[C@@H]3O[C@H]1C[C@H](N)[C@H](O)[C@H](C)O1 [Doxorubicin, reference compound]
IC50: 2.53 µM

###

# ASSAY_OVERVIEW: BALB 3T3 Neutral Red Uptake cytotoxicity/phototoxicity test
# EXPERIMENTAL_CONTEXT: mouse, Mean CC50 ± SD, +Irr, BALB 3T3 cells, irradiated 2.4 J/cm^2, NRU
# Procedure: An in vitro BALB 3T3 Neutral Red Uptake assay was used to determine the cytotoxicity/phototoxicity of the peptides. Cytotoxicity of peptide analogs was calculated as a percentage relative to the negative control. […] Photo irritation factor (PIF) was used to assess the phototoxic potential of the peptide analogs. […] Mouse embryonic fibroblasts (BALB 3T3) were used to perform the cytotoxicity and phototoxicity tests. […] Cell viability was measured using the BALB 3T3 neutral red uptake test. […]
Where no end group is shown, it is not given here.
MEASURED_PARAMETER: CC50 (µM)

SUBSTANCE: GLFDIIKKIAESF-NH2 [Aurein 1.2]
REPORTED: 87.2

###

# System: BALB 3T3 cells
# ASSAY_OVERVIEW: in vitro
# Protocol: An in vitro BALB 3T3 Neutral Red Uptake assay was used to determine the cytotoxicity/phototoxicity of the peptides. Cytotoxicity of peptide analogs was calculated as a percentage relative to the negative control. […] Photo irritation factor (PIF) was used to assess the phototoxic potential of the peptide analogs. […] Mouse embryonic fibroblasts (BALB 3T3) were used to perform the cytotoxicity and phototoxicity tests. […] Cell viability was measured using the BALB 3T3 neutral red uptake test. […]
Where a SMILES comes first, the peptide text is derived from it. [ ]: non-standard residue; d: D form. Dab = NCC[C@H](N)C(=O)O; Dap = NC[C@H](N)C(=O)O
Measured PIF (Photo Irritation Factor), listed per entry for reference.
MEASURED_PARAMETER: PIF (Photo Irritation Factor)

MOLECULE: CC[C@H](C)[C@H](NC(=O)[C@H](CCN)NC(=O)[C@H](CCN)NC(=O)[C@@H](NC(=O)[C@@H](NC(=O)[C@H](CC(=O)O)NC(=O)[C@H](Cc1ccccc1)NC(=O)[C@H](CC(C)C)NC(=O)CN)[C@@H](C)CC)[C@@H](C)CC)C(=O)N[C@@H](C)C(=O)N[C@@H](CCC(=O)O)C(=O)N[C@@H](CO)C(=O)N[C@@H](Cc1ccccc1)C(N)=O [EH [Dab]^7,8] (H-GLFDII[Dab][Dab]IAESF-NH2)
REPORTED: 1.11

MOLECULE: CC[C@H](C)[C@H](NC(=O)[C@H](CCN)NC(=O)[C@H](CCCCN)NC(=O)[C@@H](NC(=O)[C@@H](NC(=O)[C@H](CC(=O)O)NC(=O)[C@H](Cc1ccccc1)NC(=O)[C@H](CC(C)C)NC(=O)CN)[C@@H](C)CC)[C@@H](C)CC)C(=O)N[C@@H](C)C(=O)N[C@@H](CCC(=O)O)C(=O)N[C@@H](CO)C(=O)N[C@@H](Cc1ccccc1)C(N)=O [EH [Dab]^8] (H-GLFDIIK[Dab]IAESF-NH2)
REPORTED: 1.13

MOLECULE: CC[C@H](C)[C@H](NC(=O)[C@H](CN)NC(=O)[C@H](CN)NC(=O)[C@@H](NC(=O)[C@@H](NC(=O)[C@H](CC(=O)O)NC(=O)[C@H](Cc1ccccc1)NC(=O)[C@H](CC(C)C)NC(=O)CN)[C@@H](C)CC)[C@@H](C)CC)C(=O)N[C@@H](C)C(=O)N[C@@H](CCC(=O)O)C(=O)N[C@@H](CO)C(=O)N[C@@H](Cc1ccccc1)C(N)=O [EH [Dap]^7,8] (H-GLFDII[Dap][Dap]IAESF-NH2)
REPORTED: 1.01
